Entries and their AC50 values follow.
molecular target: Paired box protein Pax-8 (Homo sapiens, UniProt Q06710); assay: PAX8 transcriptional activity inhibition in RMG-I – RMG-I cells, luciferase, cherry-pick, dose response (AID 687027); type: functional, cell-based;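 further: luciferase reporter driven by Pax8 target thyroperoxidase promoter measured by SteadyGlo luminescence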
Sequence (Q06710 whole entry): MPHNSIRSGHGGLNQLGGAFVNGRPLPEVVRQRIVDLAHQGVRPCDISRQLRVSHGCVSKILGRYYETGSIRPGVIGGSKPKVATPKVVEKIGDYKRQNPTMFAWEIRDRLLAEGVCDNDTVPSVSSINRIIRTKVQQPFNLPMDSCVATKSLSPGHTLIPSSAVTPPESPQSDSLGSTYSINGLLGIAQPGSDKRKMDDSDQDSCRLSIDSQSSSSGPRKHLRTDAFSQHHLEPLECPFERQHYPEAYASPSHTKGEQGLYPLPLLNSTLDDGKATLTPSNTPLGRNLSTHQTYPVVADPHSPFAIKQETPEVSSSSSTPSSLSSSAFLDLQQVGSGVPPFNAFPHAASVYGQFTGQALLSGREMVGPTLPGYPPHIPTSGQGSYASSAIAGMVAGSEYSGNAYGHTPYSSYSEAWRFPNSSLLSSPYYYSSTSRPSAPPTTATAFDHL
Active and inactive are the calls of the source. How the calls were made is not given here.

# MOL SMILES, RESULT
measured = [
    ("COc1cccc2c1C(=O)c1c(O)c3c(c(O)c1C2=O)C[C@](O)(C(C)=O)C[C@H]3O[C@@H]1C[C@@H](N)[C@@H](O)[C@@H](C)O1", "2.84 µM (active)"),
    ("COc1ccccc1NC(=O)N1CCCCN2[C@@H](CO)[C@@H](c3ccc(C#Cc4ccccc4)cc3)[C@@H]2C1", "4.9 µM (active)"),
    ("[H]/N=C(\\N/C(=N/[H])NCCCCCCNC(=N)NC(=N)Nc1ccc(Cl)cc1)Nc1ccc(Cl)cc1", "5.69 µM (active)"),
]

The reported AC50 of the compound c1cc2c(cc1C1=NN=C(NC3CC3)SC1)OCCO2 was 2.14 µM (active)

The reported AC50 of the compound C[C@@H]1CN([C@H](C)CO)C(=O)c2cc(NC(=O)Nc3ccc(F)cc3)ccc2O[C@@H](C)CCCCO[C@H]1CN(C)C(=O)C1CCCCC1 was 5.55 µM (active)

The reported AC50 of the compound O=C(N/N=C/c1ccc(O)cc1)c1[nH]c2ccc(Br)cc2c1-c1ccccc1 was 4.43 µM (active)

The reported AC50 of the compound C[C@H]1CCCCO[C@@H](CN(C)Cc2ccc(C(F)(F)F)cc2)[C@@H](C)CN([C@@H](C)CO)C(=O)c2cc(NS(=O)(=O)c3ccc(F)cc3)ccc2O1 was 6.82 µM (active)

The reported AC50 of the compound COc1cccc(-c2ccc3c(c2)[C@@H]2[C@@H](CCN2S(=O)(=O)c2ccccc2C)[C@H](CO)N3C)c1 was 10.4 µM (active)
